Below, each of the molecules is paired with its reported GI50 value.
system: SN12C; experiment: NCI tumour cell line growth inhibition, 48 h
Activity calls are given as the source filed them. Cut-off read from the data, not from the text of the source: active = GI50 up to about 1.1 µM and inactive = higher.
propertyMeasured: GI50

>>> print(df.to_string())
                                   molecule               result
0            O=C(O)C1=C(Cl)c2ccccc2S1(=O)=O  > 100 µM (inactive)
1  N#CC1=C(N)OC2=C(CCCc3ccc([N+](=O)[O-])cc32)C1c1ccccc1 (stereo unspecified)      6 µM (inactive)
2             Cc1sc2c(c1C)/C(=N\O)c1cccn1-2   38.5 µM (inactive)
3  Cc1nc(C(N)=S)sc1C(=O)CC(=O)C(=O)Nc1cccc(Cl)c1C  > 100 µM (inactive)
4  [N-]=[N+]=C(C(=O)C(=[N+]=[N-])C(=O)c1ccccc1)C(=O)c1ccccc1  > 100 µM (inactive)
5  [O-][Cl+3]([O-])([O-])[O-].c1ccc(-c2[o+]c(-c3ccccc3)c(-c3ccccc3)c(-c3ccccc3)c2-c2ccccc2)cc1  > 100 µM (inactive)

----------
system: HOP-92; test: NCI tumour cell line growth inhibition, 48 h
Calls of active or inactive are those of the source. Cut-off read from the data, not from the text of the source: active = GI50 up to about 1.1 µM and inactive = higher.
propertyMeasured: GI50

>>> df
                                   compound  propertymeasured               result
0          O=c1[nH]nc(-c2ccccc2)n1Nc1ccccc1              GI50  > 100 µM (inactive)
1  O=C1CCCc2ccc3c(c21)CC1(Cc2cc4c(cc2C1)CCCC4)C3              GI50   12.9 µM (inactive)
2  COC(=O)C1CC(C(=O)OC)c2nc3cc(C)c(C)cc3nc21 (stereo not drawn)              GI50  > 100 µM (inactive)

----------
test system: U-251; experiment: NCI tumour cell line growth inhibition, 48 h
Activity calls are given as the source filed them. Cut-off read from the data, not from the text of the source: active = GI50 up to about 1.1 µM and inactive = higher. Numbered stars: 1 amine (or outer) side, 2 acyl side, 3 side chain; on linkers, the order of the positions; unused ones are H or OH. Bridge positions count the residues as written; N and C are the ends. Square brackets hold non-standard residues; d marks the D form. Peptide text beside a SMILES is read from it. I, II: the chains in the order shown. Actinocin(9to1) = Cc1c2oc3c(C)ccc(C(=O)[*:1])c3nc-2c(C(=O)[*:2])c(N)c1=O; NMeH = CN[CH](Cc1c[nH]cn1)C(=O)O; Sar = CNCC(=O)O
Possible outcomes: active, inactive

compound	label
O=S1(=O)CCN(Cc2ccccn2)CC1	inactive
CN(C)C(=S)/N=c1\ssc(=S)n1Cc1ccccc1	active
COc1ccc2c(c1)N=C1CSC(c3cc([N+](=O)[O-])ccc3Cl)N1C2 (stereo unspecified)	inactive
CC/C=C\C/C=C\C1CC(=O)NCCCNCCCCN1 (stereo unspecified)	inactive
Nc1nc(Cl)cc(NCC2(CO)CC(Cc3ccccc3)C2)n1 (stereo unspecified)	inactive
O=C(O)c1nc2ccc(C(F)(F)F)cc2nc1NCc1ccc(F)cc1	inactive
CCC1=C(C)C(=O)N/C1=C\c1[nH]c(C)c([C@H](C)CCN)c1C	inactive
Cc1c2oc3c(C)ccc(C(=O)NC4C(=O)NC(C(C)C)C(=O)N5CCCC5C(=O)N(C)CC(=O)N(C)C(Cc5cnc[nH]5)C(=O)OC4C)c3nc-2c(C(=O)NC2C(=O)NC(C(C)C)C(=O)N3CCCC3C(=O)N(C)CC(=O)N(C)C(Cc3cnc[nH]3)C(=O)OC2C)c(N)c1=O (stereo unspecified) (I: TVP[Sar][NMeH] / II: TVP[Sar][NMeH]; ester I:1-I:C, II:1-II:C; linker I:N-II:N via Actinocin(9to1); configuration not given here)	inactive
COC(=O)C1CC(C(=O)OC)c2nc3cc(C)c(C)cc3nc21 (stereo unspecified)	inactive
CCCP1(=O)C=C(C)C(=C(Cl)Cl)C(C)=C1 (stereo unspecified)	inactive
Cc1ccc(/N=C/C=C(\Nc2ccc(C)cc2)c2ccc3ccccc3c2)cc1	active
Cc1cc(NCCCCCCCNc2cc(C)nc3cc([N+](=O)[O-])ccc23)c2ccc([N+](=O)[O-])cc2n1	inactive
COc1ccc(N2C(=O)C3c4[nH]c5ccccc5c4C4CC(C)(C)CC(C)(C)C4C3C2=O)cc1 (stereo unspecified)	inactive
CC1(C)OC1COc1c2occc2cc2ccc(=O)oc12 (stereo unspecified)	inactive
Cc1cc(O)nc(NNC(C#N)c2cccc([N+](=O)[O-])c2)n1 (stereo unspecified)	inactive
O=C1c2ccccc2C(=O)N1c1nc(-c2ccc(Cl)cc2)cc(N2N=C(c3ccc(Br)cc3)CC2c2ccccc2)n1 (stereo unspecified)	inactive

----------
tested on: OVCAR-5; assay: NCI tumour cell line growth inhibition, 48 h
Active and inactive are the calls of the source. No stated cut-off is given here; in the data, active = GI50 up to about 1.1 µM and inactive = higher. Peptide text beside a SMILES is read from it. * marks the point of attachment. Boc = CC(C)(C)OC(=O)*; OBn = c1ccc(CO*)cc1
propertyMeasured: GI50

molecule	result
COC(=O)C(Br)C1CCc2ccccc21 (stereo not drawn)	> 100 µM (inactive)
C=C(C1=CC(=O)C(C)(C)O1)[C@@H]1CC=C([C@@H]2CC[C@H]3[C@@]2(C)CC[C@H]2C(C)(C)C(=O)[C@H](OC(=O)CC(C)(O)CC(=O)O)C[C@]32C)[C@H](O)O1 (stereo partly drawn)	14.5 µM (inactive)
Fc1ccc(C2(CCCN3CCc4[nH]c5cc(F)ccc5c4C3)OCCO2)cc1	2.89 µM (inactive)
O=C(O)c1ccc([Se][Se]c2ccc(C(=O)O)cc2)cc1	23.5 µM (inactive)
c1ccc([P+](CCCCCC[P+](c2ccccc2)(c2ccccc2)c2ccccc2)(c2ccccc2)c2ccccc2)cc1	34.3 µM (inactive)
O=C(O)CCCc1cc2c(s1)-c1cccc3cccc-2c13	> 100 µM (inactive)
COc1ccc2nc(-c3cccs3)cc(C(O)CN3CCSCC3)c2c1 (stereo not drawn)	19.2 µM (inactive)
CC(NC(=O)Cc1ccccc1)NC(=O)C(C)C(=O)Nc1ccccc1 (stereo not drawn)	> 100 µM (inactive)
COc1cc(Nc2nc3ccccc3nc2-c2cccs2)cc(OC)c1OC	> 100 µM (inactive)
O=C1CCC2(c3ccccc3)OCC([C@@H](O)c3ccccc3)N12 (stereo partly drawn)	> 100 µM (inactive)
O=c1cc(NNc2cccc3ccccc23)[nH]c(=O)[nH]1	17.2 µM (inactive)
CC(O)C(O)C(N)CC=O (stereo not drawn)	175 µM (inactive)
CC(C)CC(NC(=O)OC(C)(C)C)C(=O)NC(CC(=O)OCc1ccccc1)C(N)=O (stereo not drawn) (Boc-Leu-Asp(OBn)-NH2; configuration not given here)	> 100 µM (inactive)
Cc1ccc(NNc2cc(=O)[nH]c(=O)[nH]2)cc1Cl	73.8 µM (inactive)
C=CC/N=C1\N=C(C)C(C(=O)OCC)S1 (stereo not drawn)	> 100 µM (inactive)
O=C1OC(CS(=O)(=O)c2ccccc2)CC1O (stereo not drawn)	> 100 µM (inactive)
CC(C)(C)OC(=O)NC(Cc1ccc(OCc2ccccc2)cn1)C(=O)N1CCCCC1 (stereo not drawn)	65.2 µM (inactive)
N#CCCN(CCC#N)c1ccc(/C=C2\N=C(c3cc([N+](=O)[O-])ccc3Cl)OC2=O)cc1	> 100 µM (inactive)

----------
test system: A549; assay: NCI tumour cell line growth inhibition, 48 h
Calls of active or inactive are those of the source. No stated cut-off is given here; in the data, active = GI50 up to about 1.1 µM and inactive = higher.
propertyMeasured: GI50

>>> print(df.to_string())
                                   molecule  subjectoftest  propertymeasured               result
0  C[N+](C)(C)CC1CCCC/C1=N\O (stereo not drawn)           A549              GI50  > 100 µM (inactive)
1  COC(=O)C12OC(C)(C(CC(=O)OC(C)(C)C)C1=O)C1C(=O)N(c3ccccc3)C(=O)C12 (stereo not drawn)           A549              GI50  > 100 µM (inactive)
2  COc1ccc2c(c1)N=C1CSC(c3cc([N+](=O)[O-])ccc3Cl)N1C2 (stereo not drawn)           A549              GI50   30.9 µM (inactive)
3  O=C1CCCc2ccc3c(c21)CC1(Cc2cc4c(cc2C1)CCCC4)C3           A549              GI50     22 µM (inactive)
4  O=C(O)c1nc2ccc(C(F)(F)F)cc2nc1NCc1ccc(F)cc1           A549              GI50   19.1 µM (inactive)
5  C1=C\CCCCN2C[C@H]3CCCC/C=C\CCCCN4CC[C@@H]([C@H](CCCCCC/1)C4)[C@H](C3)C2           A549              GI50   2.09 µM (inactive)
6     O=C(CN1CCCCC1)CC(O)(C(F)(F)F)C(F)(F)F           A549              GI50  > 100 µM (inactive)
7  Cc1nn(C(=O)c2ccccc2O)c2c1C(c1ccc([N+](=O)[O-])cc1)SC(=N)N2 (stereo not drawn)           A549              GI50   1.47 µM (inactive)

Recorded values, source ChEMBL document CHEMBL1201862.
